System: SF-295
Experiment: NCI tumour cell line growth inhibition, 48 h
Calls of active or inactive are those of the source. No stated cut-off is given here; in the data, active = GI50 up to about 1.1 µM and inactive = higher.
Below, each of the compounds is paired with its reported GI50 value.
Property label: GI50

INSERT INTO assay_data (compound, study_target, result) VALUES
  ('COc1ccc(C[C@H]2COC(=O)[C@@H]2Cc2cccc(Br)c2)cc1OC', 'SF-295', '32.7 µM (inactive)'),
  ('NC(=O)CN(CC(N)=O)C(N)=O', 'SF-295', '> 100 µM (inactive)'),
  ('O=c1c2cc([N+](=O)[O-])ccc2n(Cc2ccccc2)n1Cc1ccccc1', 'SF-295', '15.1 µM (inactive)'),
  ('CCOP(=O)(OCC)C(C)(C)OC(=O)NC#N', 'SF-295', '> 100 µM (inactive)'),
  ('CC[As](CC)SCC1OC(OC(C)=O)C(OC(C)=O)C(OC(C)=O)C1OC(C)=O (configuration not stated)', 'SF-295', '18.9 µM (inactive)'),
  ('CC1CCN(C(C)C)P(=S)(Cc2ccccc2)O1 (configuration not stated)', 'SF-295', '34 µM (inactive)'),
  ('Cc1oc2c(cc(O)c3ccccc32)c2cccc1-2', 'SF-295', '> 100 µM (inactive)'),
  ('Oc1c(CN2CCN(c3ccccc3)CC2)cc(Br)c2cccnc12', 'SF-295', '1.21 µM (inactive)'),
  ('COc1ccc(C(=O)/C=C/c2ccc(OCC(=N)N)cc2)cc1', 'SF-295', '16.3 µM (inactive)'),
  ('NC(CCc1nc(-c2cccc([N+](=O)[O-])c2)cs1)C(=O)O (configuration not stated)', 'SF-295', '> 100 µM (inactive)'),
  ('O=C(Cc1cc(=O)oc2cc(O)ccc12)N/N=C/c1ccc(N(CCCl)CCCl)cc1', 'SF-295', '18.1 µM (inactive)'),
  ('CN(C)NC(=S)NC12CC3CC(CC(C3)C1)C2', 'SF-295', '> 100 µM (inactive)'),
  ('C#CCNC(=O)NC(CCCNC(=O)OCc1ccccc1)C(=O)OCc1ccccc1 (configuration not stated)', 'SF-295', '> 100 µM (inactive)'),
  ('O=C(O)C1CC2C=CCC(C2)C1 (configuration not stated)', 'SF-295', '> 100 µM (inactive)'),
  ('COc1ccc(C(=O)C(c2ccc(OC)cc2)C2(O)C(=O)Nc3ccc([N+](=O)[O-])cc32)cc1 (configuration not stated)', 'SF-295', '> 100 µM (inactive)'),
  ('CN(C)c1ccc(/C=N/NC2=N/C(=C\c3ccco3)C(=O)N2)cc1', 'SF-295', '> 100 µM (inactive)'),
  ('COc1oc(C2C/C(=C/C(C)=C/C(C)=C/C(C)=C/c3ccc([N+](=O)[O-])cc3)CO2)c(C)c(=O)c1C (configuration not stated)', 'SF-295', '2.47 µM (inactive)'),
  ('CCOC(=O)c1c(C)nc2c3ccccc3c(C#N)c(C)n12', 'SF-295', '34.9 µM (inactive)'),
  ('CN1C[C@@H]2CCCN2P1Oc1cccc2cccnc12 (some centres not stated)', 'SF-295', '85.7 µM (inactive)'),
  ('CCN(CC)c1c(C(=O)/C=C/c2ccc(Cl)cc2)c(-c2ccccc2)nn(C)c1=O', 'SF-295', '1.85 µM (inactive)'),
  ('COc1ccc(/N=C2\C(=N/c3ccc(OC)cc3)N(S(=O)(=O)c3ccccc3)C(=S)N2c2ccc(OC)cc2)cc1', 'SF-295', '> 100 µM (inactive)'),
  ('C=CCC(CNC(=O)OCc1ccccc1)OC(=O)OCc1ccccc1 (configuration not stated)', 'SF-295', '55.5 µM (inactive)');
